target: Integrin alpha-V/beta-3 (Homo sapiens, UniProt P05106+P06756); assay: Inhibitory activity against vitronectin receptor (alpha V beta 3); assay type: protein-complex assay
Sequence (P05106 27-788 limits assumed): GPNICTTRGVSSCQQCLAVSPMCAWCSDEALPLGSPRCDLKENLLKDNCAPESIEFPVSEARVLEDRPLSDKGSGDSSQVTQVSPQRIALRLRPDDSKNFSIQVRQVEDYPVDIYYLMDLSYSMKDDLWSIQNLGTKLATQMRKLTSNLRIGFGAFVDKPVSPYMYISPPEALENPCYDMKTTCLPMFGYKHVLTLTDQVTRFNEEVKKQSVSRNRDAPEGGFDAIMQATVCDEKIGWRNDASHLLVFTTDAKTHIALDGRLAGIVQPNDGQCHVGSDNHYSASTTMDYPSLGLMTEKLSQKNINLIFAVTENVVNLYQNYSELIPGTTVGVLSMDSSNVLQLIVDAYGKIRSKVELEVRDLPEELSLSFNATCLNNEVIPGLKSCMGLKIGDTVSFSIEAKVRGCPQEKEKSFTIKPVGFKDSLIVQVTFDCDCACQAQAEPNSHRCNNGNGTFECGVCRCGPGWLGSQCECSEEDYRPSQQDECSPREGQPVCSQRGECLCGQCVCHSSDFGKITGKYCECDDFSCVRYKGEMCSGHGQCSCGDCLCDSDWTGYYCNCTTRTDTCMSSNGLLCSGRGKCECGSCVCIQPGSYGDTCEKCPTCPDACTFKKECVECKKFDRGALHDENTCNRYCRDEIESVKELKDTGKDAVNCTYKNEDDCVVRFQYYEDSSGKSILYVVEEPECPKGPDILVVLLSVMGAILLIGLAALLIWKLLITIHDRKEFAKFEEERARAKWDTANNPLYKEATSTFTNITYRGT
Sequence (P06756 31-889 limits assumed): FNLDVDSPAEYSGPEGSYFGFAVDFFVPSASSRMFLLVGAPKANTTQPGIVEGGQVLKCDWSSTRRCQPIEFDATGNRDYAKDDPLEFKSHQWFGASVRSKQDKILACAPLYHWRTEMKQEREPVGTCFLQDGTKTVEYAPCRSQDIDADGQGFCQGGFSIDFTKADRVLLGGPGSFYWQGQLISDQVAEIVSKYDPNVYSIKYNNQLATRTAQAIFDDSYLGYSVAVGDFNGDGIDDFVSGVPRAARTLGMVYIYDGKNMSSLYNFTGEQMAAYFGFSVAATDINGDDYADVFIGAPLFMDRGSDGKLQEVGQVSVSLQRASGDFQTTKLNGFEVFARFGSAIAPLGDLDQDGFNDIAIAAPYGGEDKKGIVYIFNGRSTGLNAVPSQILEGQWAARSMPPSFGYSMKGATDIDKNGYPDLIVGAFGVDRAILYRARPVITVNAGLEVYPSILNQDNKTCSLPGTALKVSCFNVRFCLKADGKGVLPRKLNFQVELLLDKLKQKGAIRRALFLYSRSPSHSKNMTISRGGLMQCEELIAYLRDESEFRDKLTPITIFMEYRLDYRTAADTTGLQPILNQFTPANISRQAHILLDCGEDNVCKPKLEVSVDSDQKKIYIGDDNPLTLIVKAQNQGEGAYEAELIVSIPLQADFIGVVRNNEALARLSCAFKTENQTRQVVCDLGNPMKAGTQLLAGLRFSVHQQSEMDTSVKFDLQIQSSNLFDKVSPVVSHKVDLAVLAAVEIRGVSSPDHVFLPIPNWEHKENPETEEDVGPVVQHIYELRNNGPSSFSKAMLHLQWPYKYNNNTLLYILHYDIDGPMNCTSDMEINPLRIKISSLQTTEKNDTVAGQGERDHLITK
Sequence (P06756 891-1048 limits assumed): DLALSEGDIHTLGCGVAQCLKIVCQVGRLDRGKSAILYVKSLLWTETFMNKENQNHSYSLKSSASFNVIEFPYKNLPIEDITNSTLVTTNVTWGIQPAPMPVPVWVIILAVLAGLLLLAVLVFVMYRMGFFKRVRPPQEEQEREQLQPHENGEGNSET
pIC50: −log10 of the molar value.
Given measured pIC50, output yes if it is greater than or equal to 8 and no if not.

NC(N)=Nc1cccc(C(=O)NNC(=O)NC(CC(=O)O)c2cc(Cl)cc(Cl)c2)c1 (centres undefined): yes

Textbook exercise: given the entry Cc1ccnc(NCCCCC(=O)NNC(=O)NC(CC(=O)O)c2ccc(OC(F)(F)F)cc2)c1 (centres undefined) , state whether its pIC50 is greater than or equal to 8.
no

Given CC(=N)Nc1cccc(C(=O)NNC(=O)CC(CC(=O)O)c2ccc(Cl)cc2)c1 (centres undefined) , state whether its pIC50 is at least 8.
no

Evaluate Cc1ccnc(NCCCCC(=O)NNC(=O)NC(CC(=O)O)c2ccccc2)c1 (centres undefined) : pIC50 at minimum 8?
no

Please indicate if the recorded pIC50 for CC(=N)Nc1cccc(C(=O)NNC(=O)CC(CC(=O)O)c2ccc(F)cc2)c1 (centres undefined) meets or exceeds 8.
no

Textbook exercise: given the entry N=C(N)NCCCCC(=O)NNC(=O)NC(CC(=O)O)c1ccccc1 (centres undefined) , state whether its pIC50 is greater than or equal to 8.
no

* * *

biological target: Integrin alpha-V/beta-3 (Homo sapiens, UniProt P05106+P06756); test: Inhibitory activity against vitronectin receptor (alpha V beta 3)
Just a reminder that ties go to class 0: only IC50 strictly below 2 nM counts as class 1.

Completed entries (count: 3):
N=C(N)Nc1cccc(C(=O)NNC(=O)CC(CC(=O)O)c2ccc(F)cc2)c1 (centres undefined): class 0
CC(=N)Nc1cccc(C(=O)NNC(=O)CC(CC(=O)O)c2ccc(-c3ccccc3)cc2)c1 (centres undefined): class 0
Cc1ccnc(NCCCCC(=O)NNC(=O)CC(CC(=O)O)c2ccc(-c3ccccc3)cc2)c1 (centres undefined): class 0

State whether 2 nM exceeds IC50 recorded for N=C(N)Nc1cccc(C(=O)NNC(=O)CC(CC(=O)O)c2ccc(-c3ccccc3)cc2)c1 (centres undefined) .
class 1

Threshold test, IC50 < 2 nM: NC(N)=Nc1cccc(C(=O)NNC(=O)NC(CC(=O)O)c2ccc(F)cc2)c1 (centres undefined)
class 0

# TODO verify IC50 < 2 nM strictly for this compound: COc1ccc(C(CC(=O)O)CC(=O)NNC(=O)c2cccc(NC(=N)N)c2)cc1 (centres undefined)
class 1

* * *

assay: Partition coefficient (logP); format: physicochemical; conditions: octanol/water
MEASUREMENT KIND: logP
Could you respond with only the numeric value?

Observe how each entry below is paired with its result.
Cc1ccnc(NCCCCC(=O)NNC(=O)NC(CC(=O)O)c2ccc(F)cc2)c1 (stereo not given): 1.8
Cc1ccnc(NCCCCC(=O)NNC(=O)NC(CC(=O)O)c2ccccc2)c1 (stereo not given): 1.64

Please look up its logP: COc1ccc(C(CC(=O)O)CC(=O)NNC(=O)c2cccc(NC(=N)N)c2)cc1 (stereo not given)
1

Given NC(=O)C(CC(=O)O)NC(=O)NNC(=O)c1cccc(N=C(N)N)c1 (stereo not given) , state its recorded logP.
-2.42

Recorded logP of N=C(N)Nc1cccc(C(=O)NNC(=O)NC(CC(=O)O)c2ccccc2)c1 (stereo not given) , please.
0.7

Could you tell me which logP is on file for Cc1ccnc(NCCCCC(=O)NNC(=O)CC(CC(=O)O)c2ccc(F)cc2)c1 (stereo not given) ?
2.23

Form field: reported logP of CC(=N)Nc1cccc(C(=O)NNC(=O)CC(CC(=O)O)c2ccc(-c3ccccc3)cc2)c1 (stereo not given)
3.11

These entries and their values trace back to ChEMBL document CHEMBL1134450.
